IC50 by entry:
Target of assay: Mitogen-activated protein kinase 8 (Homo sapiens, UniProt P45983)
Sequence (P45983 whole entry): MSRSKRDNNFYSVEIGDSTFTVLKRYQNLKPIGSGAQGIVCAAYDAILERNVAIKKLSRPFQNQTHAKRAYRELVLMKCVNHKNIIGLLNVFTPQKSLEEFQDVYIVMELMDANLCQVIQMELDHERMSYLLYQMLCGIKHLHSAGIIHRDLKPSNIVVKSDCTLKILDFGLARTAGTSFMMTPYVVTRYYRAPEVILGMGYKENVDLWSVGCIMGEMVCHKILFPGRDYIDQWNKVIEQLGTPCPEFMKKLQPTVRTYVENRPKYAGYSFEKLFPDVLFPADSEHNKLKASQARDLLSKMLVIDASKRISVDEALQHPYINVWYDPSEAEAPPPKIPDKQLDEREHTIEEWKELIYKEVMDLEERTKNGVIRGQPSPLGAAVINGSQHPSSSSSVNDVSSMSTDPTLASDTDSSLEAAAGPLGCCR
Assay info: Inhibition of JNK1 by TR-FRET assay
Peptide text beside a SMILES is read from it. * marks the point of attachment. X1 = O=C(NCCCN*)c1ccc(-c2n[nH]c3ccccc23)cc1

{"Compound": "CC(=O)N[C@@H](CC(C)C)C(=O)N[C@@H](CC(N)=O)C(=O)N[C@@H](CC(C)C)C(=O)NCC(=O)NCC(=O)NCCCNC(=O)c1ccc(-c2n[nH]c3ccccc23)cc1 (Ac-LNLGG-X1)", "Target of assay": "Mitogen-activated protein kinase 8 (Homo sapiens, UniProt P45983)", "IC50 (nM)": 295}
{"Compound": "CC1(C)CC(NC(=O)CCCNC(=O)c2ccc(-c3n[nH]c4ccccc34)cc2)CC(C)(C)N1O", "Target of assay": "Mitogen-activated protein kinase 8 (Homo sapiens, UniProt P45983)", "IC50 (nM)": 1200}
{"Compound": "O=C(O)CCCNC(=O)c1ccc(-c2n[nH]c3ccccc23)cc1", "Target of assay": "Mitogen-activated protein kinase 8 (Homo sapiens, UniProt P45983)", "IC50 (nM)": 1400}
